# Tested on: COLO 205 colon
# ASSAY_EXPLANATION: NCI tumour cell line growth inhibition, 48 h
PROPERTY_NAME: TGI (µM)

1. COC(=O)c1c2c(c(C)[n+]([O-])c1C)C(=O)C(NCc1ccccc1)=CC2=O: 2.67
2. Clc1ccc(-c2cnc3c(-c4ccnc(N5CCNCC5)c4)cnn3c2)cc1: 3.77

* * *

# Tested on: SF-268 CNS
# ASSAY_EXPLANATION: NCI tumour cell line growth inhibition, 48 h; in the data active = GI50 below about 0.43 µM; inactive = the rest
Possible outcomes: active, inactive

1. COc1cc2c3c(n(CCCN=[N+]=[N-])c(=O)c2cc1OC)-c1ccc([N+](=O)[O-])cc1C3=O: inactive
2. COc1cc(CSc2nc3ccc(Cl)cc3c(=O)n2Cc2ccccc2)cc(OC)c1OC: inactive
3. O=C(COc1ccccc1)NNc1ccccc1: inactive
4. CCCCCCCCCCCCCCCCn1cc[n+](C)c1: inactive
5. O=Cc1ccc(-c2ccc(-c3nc4ccccc4s3)cc2)o1: inactive
6. OCC1OC(N2C=C(c3nc4ccccc4s3)C3C=CC=CC32)C(O)C(O)C1O (stereo not drawn): inactive
7. CC(C)[C@@]12C[C@@H](OC(=O)C3CO3)[C@@](C)(O1)[C@@H]1CC[C@@H](C)[C@H]1[C@@H]2OC(=O)/C=C/c1ccccc1 (stereo partly drawn): inactive
8. Cc1ncc(C(=O)Nc2ccc(CN3CCN(C)CC3)c(C(F)(F)F)c2)cc1C#Cc1cnc(N)c2ccc(C#N)cc12: active

* * *

# Tested on: RXF 393 renal
# ASSAY_EXPLANATION: NCI tumour cell line growth inhibition, 48 h
PROPERTY_NAME: TGI (µM)

1) ClCc1ccccc1Cn1cnc2nc(Cl)nc(Cl)c21: 2.94
2) O=c1[nH]c(-c2ccc(Cl)c(Cl)c2)cn1-c1ccc(Cl)cc1: 56.4
3) COc1ccc(Sc2[nH]c(C=O)c3ccccc23)cc1: 33.3
4) O=C(Nc1ccc(I)cc1F)c1cc(Br)ccc1O: 3.6
5) Nc1ccc(Oc2ccc(C34CC5CC(C3)CC(c3ccc(Oc6ccc(N)cc6C(F)(F)F)cc3)(C5)C4)cc2)c(C(F)(F)F)c1: 25.1
6) O=C1OC2(c3ccc(O)cc3Oc3cc(O)ccc32)c2cccc3cccc1c23: 26.9
7) Cc1ccc(NC(=O)C2C3C=CC(O3)C2C(=O)O)cc1 (stereo not given): 80.1
8) CCOC(=O)C1=C(C(=O)OCC)SC2(S1)C(C(=O)OCC)=C(C(=O)OCC)Sc1c2ssc1=O: 2.47
9) COc1cc([C@@H]2c3cc4c(cc3[C@@H](NCc3ccccc3F)C3COC(=O)[C@@H]32)OCO4)cc(OC)c1O (stereo not given in full): 54.7
10) COC(=O)CCc1n(Cc2ccc3ccccc3c2)c2ccccc2[n+]1Cc1ccc2ccccc2c1: 2.23
11) O=C1Nc2cccc(Cl)c2/C1=C\c1cccnc1: 7.48
12) NC(=O)c1cn(C2CC(O)C(CO)O2)c2ncnc(N)c12 (stereo not given): 13.9
13) CN(C)CC1(C)CC/C(=C\c2ccc(Cl)cc2)C1=O (stereo not given): 82.1
14) Cc1nc2ccccc2c(=O)n1/N=C(\N=Nc1ccccc1)c1ccccc1Cl: 61.8
15) Cc1cc(C)c2c(=O)n(CC(O)CN(Cc3ccccc3)CC(O)Cn3sc4nc(C)cc(C)c4c3=O)sc2n1 (stereo not given): 33.6
16) CC(C)(C)c1cc(C[P+](c2ccccc2)(c2ccccc2)c2ccccc2)cc(C(C)(C)C)c1O: 4.67
17) CCn1nc(C2CCN(C(=O)CCO)CC2)nc1-c1cnc(N)c(-c2nnc(C(C)(C)C)o2)n1: 20.9
18) O=C1C(Cl)C(c2ccccc2Cl)N1n1cnc2ccccc2c1=O (stereo not given): 67.3

* * *

Reported TGI by item:
# Test system: UACC-62 melanoma
# ASSAY_EXPLANATION: NCI tumour cell line growth inhibition, 48 h
PROPERTY_NAME: TGI (µM)

1) COc1cccc(/C=C2\CCC(CN(C)C)C2=O)c1 (centres undefined): 20.9
2) COc1ccc2c(n1)Sc1nc3ccccc3nc1N2: 43.4
3) COc1cccc2c1C(=O)c1c(O)c3c(c(O)c1C2=O)C[C@](O)(C(=O)CO)C[C@H]3O[C@@H]1C[C@@H](NC(=O)CCCN(C)C2(c3ccc(F)cc3)CC3CCC2C3)[C@H](O)[C@@H](C)O1 (some centres undefined): 1.92
4) COC(=O)/C=C1\CCC2[C@@H](C(=O)CC3[C@]2(C)CCC[C@@]3(C)C(=O)OC)C1C (some centres undefined): 30
5) CCN1/C(=C/C(C)=C/c2sc3ccc4ccccc4c3[n+]2CC)Sc2ccc3ccccc3c21: 1.8

* * *

# Test system: OVCAR-8 ovarian
# ASSAY_EXPLANATION: NCI tumour cell line growth inhibition, 48 h; in the data active means GI50 below about 0.43 µM; inactive means the rest
Possible outcomes: 1.0 for active, 0.0 for inactive

1) Clc1cc(Br)ccc1-c1ccc(CNCC2CCNCC2)o1: 0.0
2) CCN1/C(=C/C(C)=C/c2sc3ccc4ccccc4c3[n+]2CC)Sc2ccc3ccccc3c21: 1.0
3) Oc1nc(N2CCOCC2)sc1/C=C1\C=Nc2ccccc21: 0.0
4) CCCCCSc1ccc2nc(NC(=O)OCC)sc2c1: 0.0
5) COc1ccc(C2c3ccc4ccccc4c3Oc3ncn(CCCn4ccnc4)c(=N)c32)cc1OC (stereo unspecified): 0.0
6) CCOc1ccccc1/C=N\N=C(N/N=C/c1ccccc1OCC)N/N=C/c1ccccc1OCC: 0.0

* * *

# System: DU-145 prostate
# ASSAY_EXPLANATION: NCI tumour cell line growth inhibition, 48 h
PROPERTY_NAME: GI50

1. O=C(Nc1ccc(Cl)c(C(F)(F)F)c1)Nc1ccc(-c2cccnc2)cc1N1CCC(CO)CC1: 3.74 µM
2. CCOC(=O)Cc1csc(NC(=O)C(OC(=O)c2ccc(Cl)cc2)c2ccccc2)n1 (stereo not drawn): 72.7 µM
3. CN1CCN(C)C1c1ccc(C2N(C)CCN2C)cc1: 30.2 µM
4. COc1ccc(Sc2[nH]c(C=O)c3ccccc23)cc1: 6.25 µM
5. O=Cc1ccc(-c2ccc(-c3nc4ccccc4s3)cc2)o1: 35 µM
6. Clc1cc(Br)ccc1-c1ccc(CNCC2CCNCC2)o1: 1.75 µM
7. OCC1OC(N2C=C(c3nc4ccccc4s3)C3C=CC=CC32)C(O)C(O)C1O (stereo not drawn): 20.6 µM
8. Nc1nc(Sc2ccc([N+](=O)[O-])c3nonc23)c2ncn(C3OC(CO)C(O)C3O)c2n1 (stereo not drawn): 0.554 µM

* * *

Reported TGI by item:
# Tested on: RPMI-8226 leukemia
# ASSAY_EXPLANATION: NCI tumour cell line growth inhibition, 48 h
PROPERTY_NAME: TGI

1. COc1cc2c3c(n(CCCN=[N+]=[N-])c(=O)c2cc1OC)-c1ccc(F)cc1C3=O: 10.8 µM
2. C/C(=C/CC[C@](C)(OC1OC(CO)C(O)C(O)C1O)[C@H]1CC[C@]2(C)[C@@H]1CC[C@@H]1[C@@]3(C)CC[C@H](O)C(C)(C)[C@@H]3C[C@H](O)[C@]12CO)CO (stereo not given in full): > 100 µM
3. c1cc[c]([Ge]([O]c2cccc3cccnc23)([c]2ccccc2)[c]2ccccc2)cc1: 6.77 µM
4. CCOc1ccc(N(CC(=O)N2CC(=O)Nc3cc(C)c(C)cc32)C(C)=O)cc1: > 100 µM
5. O=C1CCC2(c3ccc(Cl)cc3)Nc3ccccc3N12 (stereo not given): > 100 µM
6. CN1CCc2ccccc2C1Cc1ccccc1NC(=O)c1sc2ccccc2c1Cl (stereo not given): > 100 µM
7. Clc1ccc(-c2cnc3c(-c4ccnc(N5CCNCC5)c4)cnn3c2)cc1: 4.05 µM
8. CCCCCCCCCCCCCCCCc1c(C(=O)OC)nc(NC#N)[nH]c1=O: > 25 µM
9. O=Cc1ccc(-c2ccc(-c3nc4ccccc4s3)cc2)o1: > 100 µM
10. C[N+]1(C(CO)Cc2c[nH]c3ccccc23)Cc2ccccc2C1 (stereo not given): > 100 µM
11. COc1cc(C2c3cc4c(cc3OC(NNC(N)=S)C2C)OCO4)cc(OC)c1OC (stereo not given): 0.847 µM
12. CCOC(=O)C1CC(=O)C=C2CCCCC21 (stereo not given): > 100 µM
13. CCN(CC)CCCNc1ccc([N+](=O)[O-])c2nc3ccccc3c(N)c12: 8.35 µM
14. COc1cc(CSc2nc3ccc(Cl)cc3c(=O)n2Cc2ccccc2)cc(OC)c1OC: > 100 µM
15. NC(=O)N/N=C(\CC1OC(=O)c2ccccc21)c1ccc([N+](=O)[O-])cc1 (stereo not given): > 100 µM
16. C/C(O)=C(/C=N/C(=S)Nc1ccccc1)C(=O)Nc1ccccc1C: > 100 µM
17. O=C(Nc1ccc(I)cc1F)c1cc(Br)ccc1O: 1.63 µM
18. Cc1ccc(S(=O)(=O)C2=Cc3ccccc3C2(O)c2ccccc2)cc1 (stereo not given): 44.7 µM
19. CC(=O)OC(C(=O)O)C(OC(C)=O)C(OC(C)=O)C(OC(C)=O)C(=O)O (stereo not given): > 100 µM
20. COc1cc2c(/C=C3\C(=O)N(C)c4ccccc43)c[nH]c2cc1C: > 20.1 µM
21. C=C(C)CC(C(=O)O)c1ccc(C)cc1 (stereo not given): > 100 µM
22. CCN1/C(=C/C(C)=C/c2sc3ccc4ccccc4c3[n+]2CC)Sc2ccc3ccccc3c21: 0.131 µM
23. COc1ccc(C)c2sc(N(Cc3cccnc3)C(=O)c3ccc(C#N)cc3)nc12: > 100 µM
24. NC(=O)N/N=C\CC(O)(C(F)(F)Cl)C(F)(F)Cl: > 10 µM
25. NC1CCN(c2nc3ccccc3c3c2CCCC3)CC1: 11.1 µM
26. S=C(NCCc1ccccn1)N/N=C(\c1ccccc1)c1ccccn1: > 58 µM
27. CCOC(=O)C1CCCc2sc(N)c(C#N)c21 (stereo not given): > 100 µM
28. O=C(/C=C/c1ccc([N+](=O)[O-])cc1)N1CCN(CCOC(c2ccc(F)cc2)c2ccc(F)cc2)CC1: 36.9 µM
29. COC(=O)C1(Cc2ccccc2)Cc2ccccc2C1O (stereo not given): > 100 µM
30. CC[C@]12CN3CCc4c([nH]c5ccccc45)[C@@](C(=O)OC)(c4cc5c(cc4OC)N(C)[C@H]4[C@@](O)(C(=O)OC)[C@H](OC(C)=O)[C@]6(CC)C=CCN7CC[C@]54[C@@H]76)CC(C3)[C@H]1O2 (stereo not given in full): > 100 µM
31. CN1CCN(C)C1c1ccc(C2N(C)CCN2C)cc1: 59.1 µM
32. O=C(NC(CS)C(=O)O)c1c2ccccc2nc2ccccc12 (stereo not given): > 100 µM
33. Cc1ccc(/C(=N/NS(=O)(=O)c2cc(C)c(Cl)cc2Cl)Sc2cc(Cl)c(C)cc2S(N)(=O)=O)cc1: > 100 µM
34. O=C1C(Cl)C(c2ccccc2Cl)N1n1cnc2ccccc2c1=O (stereo not given): > 100 µM
35. COc1cccc(/C=N\NC(=O)c2ccncc2)c1O: > 100 µM
36. Cc1ccc(-c2cc(C(=O)Nc3ccc(S(=O)(=O)N4CCCCC4)cc3)[nH]n2)c(O)c1: > 100 µM
37. COc1ccccc1NC1Oc2cc3c(cc2C(c2cc(OC)c(OC)c(OC)c2)C1C)OCO3 (stereo not given): 21 µM
38. CCCC(=O)OCC1OC(n2cc(F)c(=O)[nH]c2=O)C(F)C1O (stereo not given): > 100 µM
39. O=CN/C=C/c1ccccc1: > 100 µM
40. O=C(COc1ccccc1)NNc1ccccc1: > 300 µM
